Entry source: patent US20240199746A1

Biological target: T1, Ax1 protein, extracellular domain (human, UniProt P30530 26-451)
T1 construct: extracellular domain; also called Axl; Ark
T1 sequence (looked up): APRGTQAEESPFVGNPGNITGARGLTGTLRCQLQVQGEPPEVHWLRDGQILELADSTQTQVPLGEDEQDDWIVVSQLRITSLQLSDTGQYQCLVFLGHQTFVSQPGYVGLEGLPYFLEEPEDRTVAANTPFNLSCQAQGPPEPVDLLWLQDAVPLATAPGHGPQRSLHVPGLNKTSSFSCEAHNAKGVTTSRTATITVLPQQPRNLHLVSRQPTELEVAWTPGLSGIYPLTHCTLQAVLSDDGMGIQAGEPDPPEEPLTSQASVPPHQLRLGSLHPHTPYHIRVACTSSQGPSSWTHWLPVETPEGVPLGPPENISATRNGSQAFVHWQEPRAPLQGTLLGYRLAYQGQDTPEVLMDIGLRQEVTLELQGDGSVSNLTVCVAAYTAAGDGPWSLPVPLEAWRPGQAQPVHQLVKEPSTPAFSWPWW
Test: ELISA, mutant diluted 1:9
METRIC NAME: Affinity ELISA CPE mutant ratio (1:9, pH 6.0/7.4)
Answer as a number with no unit attached.

BINDER	MEASURED NUMBER
HC-W110T (antibody, V domains shown) VH: EVQLVQSGAEVKKPGATVKISCKVSGYSFTGHTMNWIRQPPGKGLEWIGLIKPSNGGTSYNQKFKGRVTISADKSISTAYLQWSSLKASDTAMYYCAHGHYESYFAMDYTGQGTLVTVSS VL: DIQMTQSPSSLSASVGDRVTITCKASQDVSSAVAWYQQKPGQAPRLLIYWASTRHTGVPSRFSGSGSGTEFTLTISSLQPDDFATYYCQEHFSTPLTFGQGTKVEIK	1.37

Now for another entry.
# Affinity ELISA CPE mutant ratio (1:9, pH 6.0/7.4) of LC-H091T (antibody, V domains shown, CPE single point mutant) VH: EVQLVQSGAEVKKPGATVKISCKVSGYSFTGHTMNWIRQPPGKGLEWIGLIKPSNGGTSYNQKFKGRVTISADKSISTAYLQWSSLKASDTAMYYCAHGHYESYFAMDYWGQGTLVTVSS VL: DIQMTQSPSSLSASVGDRVTITCKASQDVSSAVAWYQQKPGQAPRLLIYWASTRHTGVPSRFSGSGSGTEFTLTISSLQPDDFATYYCQETFSTPLTFGQGTKVEIK = 3.7
